System: writhing behavior
measurement-notes: Analgesic action by a writhing method using acetic acid
Type: in vivo, Male mice of a ddY strain
condition-parameters: sc; statistically minimum effective dose; 0.6% acetic acid ip 15 minutes after the drug, writhing counted for ten minutes; mice
readout-label: Analgesic Action (minimum effective dose) (mg/kg)
Express your answer in mg/kg, writing the number without its unit.

Would you please look over these solved cases?
• CCC(=O)NCc1ccc2ccn(C3CCN(CCc4ccc(F)cc4)CC3)c2c1 = 3
• CC(C)(O)COc1ccc(-c2cc3sccc3c(N3CCN(CCO)CC3)n2)cc1.Cl = 1
• CN1CC[C@]23c4c5ccc(O)c4O[C@H]2[C@@H](O)C=C[C@H]3[C@H]1C5.Cl [Morphine Hydrochloride, morphine hydrochloride, reference compound] = 1
• CCN1CCN(c2nc(-c3ccc(CCCO)c(OC)c3)cc3ccccc23)CC1.Cl = 3
• CC(=O)NCc1ccc2ccn(C3CCN(CCc4ccc(F)cc4)CC3)c2c1 = 0.3
• CCC(O)c1ccc(-c2cc3ccccc3c(N3CCN(CC)CC3)n2)cc1 (centres unmarked) = 1
• CC(=O)NCc1ccc2c(c1)N(C1CCN(CCc3ccc(F)cc3)CC1)CC2 = 0.3

// next item, Analgesic Action (minimum effective dose) requested
I'd like to know its Analgesic Action (minimum effective dose). The compound in question is "CCN1CCN(c2nc(-c3ccc(OC)cc3)cc3ccccc23)CC1"
3
